# System: A. baumannii ATCC 17978 (SEN) and A. baumannii ATCC BAA-1605 (MDR)
# Experimental protocol: Adaptive laboratory evolution (ALE), relative MIC of evolved lines
# Assay type: cell-based, Acinetobacter baumannii
# Details: Acinetobacter baumannii ATCC 17978 (AB-SEN), evolved line 6
Where a SMILES comes first, the peptide text is derived from it. Bridges are numbered along the chain shown (N, C = ends). [ ]: non-standard residue; d: D form. The star is where a group is joined. X1 = NC[C@@H](CC(=O)*)c1cccc(Cl)c1; Dab = NCC[C@H](N)C(=O)O; Dap = NC[C@H](N)C(=O)O
Mark y for Relative MIC under 20, n if at or over.

Reference set, count: 7
{"columns": ["Molecule", "Category"],
 "data": [
  ["CC(C)c1ccc(Cn2ccc3c4c(N)nc(NC5CC5)nc4ccc32)cc1", "y"],
  ["CNC(C)C1CCC(N)C(OC2C(N)CC(N)C(OC3OCC(C)(O)C(NC)C3O)C2O)O1 (centres unmarked)", "n"],
  ["Nc1nc(-n2cc(C(=O)O)c(=O)c3cc(F)c(N4CC(O)C4)c(Cl)c32)c(F)cc1F", "n"],
  ["C[C@@H](O)[C@H]1C(=O)N2C(C(=O)O)=C(S[C@H]3CC[S@@+]([O-])C3)S[C@H]12", "y"],
  ["CN[C@@H]1[C@@H](O[C@H]2O[C@H](CO)[C@@H](N)[C@H](O)[C@H]2O)OC2C[C@@H](N)[C@@H](O[C@H]3[C@H](O)[C@@H](O)[C@H](N)C[C@@H]3N)OC2[C@@H]1O (some centres unmarked)", "y"],
  ["CC(C)C[C@@H]1NC(=O)[C@@H](Cc2ccccc2)NC(=O)[C@H](CCN)NC(=O)[C@@H](NC(=O)[C@H](CN)NC(=O)[C@@H](NC(=O)C[C@H](CN)c2cccc(Cl)c2)[C@@H](C)O)CCNC(=O)[C@H]([C@@H](C)O)NC(=O)[C@H](CCN)NC(=O)[C@H](CCN)NC1=O [SPR206] (X1-T[Dap][Dab][Dab][dF]L[Dab][Dab]T; lactam 3-C (inferred); N-terminus assumed)", "n"],
  ["CN(C)[C@@H]1C(O)=C(C(N)=O)C(=O)[C@@]2(O)C(O)=C3C(=O)c4c(O)c(NC(=O)CN5CCCC5)cc(F)c4C[C@H]3C[C@@H]12", "n"]
]}

Please turn your attention to the following entry.
// query Dear reviewer, please state whether C[C@H]1c2cccc(O)c2C(=O)C2=C(O)[C@]3(O)C(=O)C(C(N)=O)=C(O)[C@@H](N(C)C)[C@@H]3[C@@H](O)[C@@H]21 has Relative MIC strictly beneath 20.
// result y
